The reported measurements were obtained from PubChem BioAssay AID328.

system: BDF1 mice, P388 leukemia ip, median survival T/C; assay: NCI In Vivo Anticancer Drug Screen. Data for tumor model P388 Leukemia (intraperitoneal) in B6D2F1 (BDF1) mice; conditions: endpoint: median survival time; dose: 75.0 mg/kg/injection; schedule: Q01DX009 (ip); vehicle: saline with Tween-80
Inconclusive results and toxic doses are left out. The calls were made as follows: active = survival T/C of 150% or more; inactive = T/C below 125% in these data.
// one of true (1) for active, false (0) for inactive, no free text

Some entries whose results are on file:
CN(C)CCC(=O)c1ccc(Cl)cc1; false (0)
Nc1ncnc2c1nnn2C1CC(CO)C(O)C1O (centres undefined); true (1)
Cc1ccn(/C(N)=N/C(=S)Nc2ccccc2)n1; false (0)

--- query ---
Query: recorded result category for COc1cc2ccc(CC3NCCc4cc5c(cc43)OCO5)cc2cc1OC (centres undefined) in this test
false (0)
